Molecular target: Neu5Ac(a2-3)Gal(b1-3)GlcNAc(b1-2)Man(a1-3)[Neu5Ac(a2-3)Gal(b1-3)GlcNAc(b1-2)Man(a1-6)]Man(b1-4)GlcNAc(b1-4)GlcNAc
Assay: glycan array binding signal (z-score within array); higher = stronger binding
Settings: glycan notation: IUPAC condensed, linker removed
The full list was thinned out, with the strongest signals kept by preference.
PARAMETER MEASURED: glycan array binding signal (z-score)

BINDER	PARAMETER MEASURED	OBSERVED VALUE
PNA (Arachis hypogaea), P02872 (protein) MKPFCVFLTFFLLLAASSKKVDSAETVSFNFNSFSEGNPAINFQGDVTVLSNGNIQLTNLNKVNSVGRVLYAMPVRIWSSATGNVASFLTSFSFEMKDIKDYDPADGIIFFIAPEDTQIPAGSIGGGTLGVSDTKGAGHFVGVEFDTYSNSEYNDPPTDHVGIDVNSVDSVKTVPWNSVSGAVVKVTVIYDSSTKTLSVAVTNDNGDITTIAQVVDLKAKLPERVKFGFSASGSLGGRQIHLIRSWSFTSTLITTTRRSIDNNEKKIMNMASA	glycan array binding signal (z-score)	-0.061
Mincle (Homo sapiens), Q9ULY5 (protein) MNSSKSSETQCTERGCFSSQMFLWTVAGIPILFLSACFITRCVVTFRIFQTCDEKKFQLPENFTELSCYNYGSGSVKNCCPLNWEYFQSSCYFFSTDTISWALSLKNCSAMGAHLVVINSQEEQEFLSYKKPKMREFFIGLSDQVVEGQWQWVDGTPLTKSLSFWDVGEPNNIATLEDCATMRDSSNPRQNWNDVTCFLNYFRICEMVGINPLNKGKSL	glycan array binding signal (z-score)	-0.71
LlpA (Arthrobacter sp) (protein) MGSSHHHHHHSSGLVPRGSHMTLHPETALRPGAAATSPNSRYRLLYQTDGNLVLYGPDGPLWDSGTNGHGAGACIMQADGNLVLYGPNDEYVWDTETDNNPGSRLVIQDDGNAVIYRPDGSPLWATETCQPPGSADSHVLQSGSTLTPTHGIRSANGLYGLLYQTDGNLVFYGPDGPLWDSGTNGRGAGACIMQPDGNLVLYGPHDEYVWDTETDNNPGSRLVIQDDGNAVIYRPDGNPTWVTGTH	glycan array binding signal (z-score)	-0.65
